Hey, just so you know, these numbers are from PubChem BioAssay.

test: binders of probe aHhip on microarray, primary screen, stem cell growth factor project, biochemical, small-molecule microarray, fluorescence 635/667 (AID 1087); settings: higher = more signal;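 further: score merges spot fluorescence at 667nm with spot signal to noise ratio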
Label 1 when composite z-score >= 0.07; otherwise 0.

{"columns": ["MOLECULE", "ASSIGNED CATEGORY"],
 "data": [
  ["CCOC(=O)NN=C1C[C@@H](O)[C@@H](O)[C@@H]2[C@@H]3C(=O)N(C[C@@H]4CCCO4)C(=O)[C@@H]3CC[C@@H]12", 0],
  ["CC(=O)OC[C@H]1O[C@H](CC=NOC[C@@H](C)[C@H](OCc2ccccc2)C(C)C)C=C[C@@H]1OC(C)=O", 0],
  ["CO[C@@H]1COC(=O)CCC[C@@H](C)[C@H](OC)COC(=O)CCC[C@H]1C", 1],
  ["COC(=O)C1=C(C)N(Cc2ccccc2)[C@]23O[C@](C(=O)OC)(C(=O)N2[C@@H]1c1ccccc1)[C@H]1CCOC(=O)[C@H]13", 0],
  ["O=C1[C@H]2[C@H]3[C@H](O)[C@H](O)CC(=NO[C@@H]4O[C@H](CO)[C@@H](O)[C@H](O)[C@H]4O)[C@@H]3CC[C@H]2C(=O)N1c1ccc(F)cc1F", 1],
  ["Cc1cc2c(c(=O)o1)[C@H](O)[C@H]1O[C@H]1C2=O", 0],
  ["CC(C)=C1C(=O)C(c2ccccc2)=C2CN3C(=O)N(CCc4ccccc4)C(=O)[C@]3(Cc3ccc(F)cc3)[C@H]21", 1],
  ["COC(=O)[C@@]1(Cc2ccc(F)cc2)[C@H]2c3cc(C(=O)N(C)C)n(Cc4ccc(OC)c(OC)c4)c3C[C@H]2CN1C(=O)c1ccccc1", 1],
  ["CCOC(=O)CCN1C(=O)[C@H]2[C@H]3[C@H](O)[C@H](O)CC(=NOC[C@@H](O)COCc4ccco4)[C@@H]3CC[C@H]2C1=O", 0],
  ["COc1ccc([Si](C)(C)[C@@H]2[C@@H](CC(=O)N3CCC[C@H]3CO)O[C@]3(C(=O)N(Cc4cccc(N5CCC5=O)c4)c4ccccc43)[C@H]2C)cc1", 1],
  ["CC(CCN1CCc2nc(-c3ccccc3)c(-c3ccccc3)cc2C1)=NOC(C)CN1CCCCc2nc(C)c(C)cc21 (stereo not given)", 1],
  ["COC(=O)[C@H](C)NC(=O)CCC1CC(OC(=O)NCc2cccc3ccccc23)CC2(CCCC(COC(=O)NCC3CCCCC3)O2)O1 (stereo not given in full)", 1],
  ["COC(=O)CC=C[C@@H](C)[C@@H](C=NO[C@@H](C)c1cc(-c2c(C)cc(C)cc2C)no1)OC", 0],
  ["CO[C@@H]1COC(=O)CC=C[C@@H](C)[C@H](OC)COC(=O)[C@H](COCc2ccccc2)NC(=O)CC=C[C@H]1C", 0]
]}
